Target: T1, human Tigit extracellular domain recombinant protein hTigit-his (self-produced) (human, UniProt Q495A1 22-141)
T1 construct: extracellular domain; Self-produced; used in the KD analysis of Embodiment 4; also called human Tigit recombinant protein; not shown: his tag
T1 sequence (looked up): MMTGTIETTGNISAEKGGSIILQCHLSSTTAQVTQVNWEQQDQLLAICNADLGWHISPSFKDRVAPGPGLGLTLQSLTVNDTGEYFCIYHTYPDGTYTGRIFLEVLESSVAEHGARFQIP
Assay: BLI (ForteBIO QKe), hTigit-his on anti-Penta-HIS sensor, antibody in solution
OUTCOME MEASURE: pKd
Field pKd (float): negative decimal logarithm of the concentration in molar.

IN: Look up pKd: 14Tigit-1-1 mouse monoclonal antibody (antibody, V domains shown, Mouse monoclonal antibody from hybridoma) VH: DVQLQESGPGLVKPSQSLSLTCTVTGYSITSDYAWNWIRQFPGNKLEWMGYISYSGSTRSNPSLKSRISITRDTSKNQFFLQLNSMTAEDTATYYCGGWEVRNYYAMDYWGQGTSVTVSS VL: DIVMTQSHKFMSTSVGDRVSITCKASQHVSTAVAWYQQKPGQSPKLLIYSASYRYTGVPDRFTGSGSGTDFTFTISSVQAEDLAVYYCQQHYNTPWTFGGGTKLEIKR
OUT: 9.76
